test: yeast display, Sf9 membrane polyspecificity reagent, FACS + sequencing; frameworks hold sequencing errors
reported property: polyreactivity (PSR sort gate)

query sequence	reported property	result
QVQLVESGGGLVQAGGSLRLICAASGITFTQYAMGWYRQAPGNEREFVAGITISGSSTYYADSVKGRFTISRDNAKNTVYLQMNRLKPEDTAVYYCAAGVRRVYASGHGAYGYWGQGTQVTVSS	polyreactivity (PSR sort gate)	low polyreactivity
QVQLVESGGRLVQAGGSLRLSCAASGRTFGGYMGWYRQAPGKESELVAVISSGDSTNYADSVKGRFTITRDNAKNTVYLQMNSVKPEDSAVYYCIAYGSDRLTLDDFWGQGTQVTVSS	polyreactivity (PSR sort gate)	low polyreactivity
QVQLVESGGGLVQAGGSLRLSCAASGRIFYYNAMGWYRQAPGKERELVATITGSGGSTYYADSVKGRFTISRDNAKNTVYLQMNSLKPEDTAVYYCNATRWYYDFYKLDYWGQGTQVTVSS	polyreactivity (PSR sort gate)	low polyreactivity

---

assay: yeast display, Sf9 membrane polyspecificity reagent, FACS + sequencing; frameworks hold sequencing errors
reported property: polyreactivity (PSR sort gate)

Example results:
query sequence	polyreactivity (PSR sort gate)
QVQLVESGGGLVQAGGSLRLSCAASGRIFGHYVMGWYRQAPRKERELDAAITRGDSTYYADSVKGRFTISRDNAKNTVYLEMNSLKPEDTAVYYCAARVWRVDARDRYYWGQGTQVTVSS	high polyreactivity
QVQLVESGGGLVQAGGSLRLSCAASGRIFVKNAMGWYRQAPGKERELVAAISSSSGSTYYADSVKGRFTISRDNAKNTVYLQMNSLKPEDTAVYYCATVRWYYSRPRPTTAYGYWGQGTQVTVSS	high polyreactivity
QVQLVESGGGLVQAGGSLRLSCAASGRIFKYNAMGWYRQATGKERELVAAISSSGGSTYYADSVKGRFTISRDNANNTVYLQMNSLKPEDTAVYYCAARYNSRVYRYDYWGQGTQVTVSS	high polyreactivity
QVQLVESGGGLVQAGGSLRLSCAASGSIIPSYSMGWYRQAPGKERDLVATIGRGGTTNYADSVKGRFTISLDNAKNTVYLQMNSLKPEDTAVYYCYAERIWRYKYGYDYWGQGSQVTVSS	high polyreactivity
QVQLVESGGGLVQAGGSLRLSCAASGSTFPWNAMGWYRQAPGKERELVAAISSGGSTNYADSVKGRFTISRDNAKNTVYLQMNSLKPEDTAVYYCNAYYWSDSRGKYDYWGQGTQVTVSS	low polyreactivity
QVQLVESGGGLVQAGGSLRLSCAASGSTFAGYAMGWYRQAPGKERELVAAISKRGTSTYYADSVKGRFTISRDNAKNTVYLQMNSLKPEDTAVYYCAARTYASYFKLYYWGQGTQVTVSS	high polyreactivity
QVQIVESGGGLVQAGGSLRLICAASGSTFSEYAMGWYRQAPGKERELVAAIRWSGGSTSYADSVKGRFTISRVNAKNTVYLQMNSLKPEDTAVYYCAAERFWYDGEVKLYVLSYYWGQGTQVTVSS	low polyreactivity
QVQLVESGGGLVQAGGSLRLSCAASGLIFVRYAMGWYRQAPGKERELVATITWSGGTTYADSVKGRFTISRDNGKNTVYLQMNSLKPEDTEVYDCAVEWPAWTDSDYPVGGHAFGYWGQVTQVTVSS	low polyreactivity
QVQLVESGGGLVQAGGSLRLSCAASGFIFTVNAMGWYRQAPGKDRELVAAITSGGNTYYADSVKGRFTISRDNAKNTVYLQMNSLKPEDTAVYYCNAVFYTWSPYGTTVRSYGYWGQGTQVTVSS	high polyreactivity
QVQLVESGGGLVQAGGSLRLSCAASGSIFGVYAMGWYRQAPGKERELVAAINSGGTTYADSVKGRFTISRDNAKNTVYLQMNSLKPEDTAVYYCNADRWGPEDPYRVRDRFDYWGQGTQVTVSS	low polyreactivity

For the sequence shown here, QVQLVESGGGLVQAGGSLRLSCAASGSTFPSYAMGGYRPAPGKERELVAAINRSGGSTYYADSVKGRFTISRDNAKNTVYLQMNSLKPEDTAVYYCATGLTTGGGYYWGQGTQVTVSS , give the reported polyreactivity (PSR sort gate).
high polyreactivity

Same read-out for QVQLVESGGGLVQAGGSLRLSSAASGRTFSYNTMGWYSQAPGQERELVARITWGGGSTNYAVSVKGRFTISRDNAKNTVYLQMNSLKPEDTAVYYCAAGPSVPYGPQKVDYWGQGTLVTVSS ?
low polyreactivity

Same read-out for QVQLVESGGGLVQAGGSLRLSCAASGYILRRNAMGWYRQAPGKERELVARINSSGGSTYYADSVKGRFTISRDNAKNTVYLQMNSLKPEDTAVYYCAKSYYRGRDYWGQGTQVTVSS ?
high polyreactivity

Same read-out for QVRLVESGGGLVQAGGSLRLSCAASGSTFWSYAMGWYRQAPGKERELVAAISWSGDSTYYADSVKGRFTISRDNAKNTVYLQMNSLKPEDTAVYYCAADYTGSFYTYDYWGQGTQVTVSS ?
low polyreactivity
